pIC50: −log10 of the molar value.
So I've got pIC50 readings for UniProt:P03372, take a look.
Sequence (P03372 whole entry): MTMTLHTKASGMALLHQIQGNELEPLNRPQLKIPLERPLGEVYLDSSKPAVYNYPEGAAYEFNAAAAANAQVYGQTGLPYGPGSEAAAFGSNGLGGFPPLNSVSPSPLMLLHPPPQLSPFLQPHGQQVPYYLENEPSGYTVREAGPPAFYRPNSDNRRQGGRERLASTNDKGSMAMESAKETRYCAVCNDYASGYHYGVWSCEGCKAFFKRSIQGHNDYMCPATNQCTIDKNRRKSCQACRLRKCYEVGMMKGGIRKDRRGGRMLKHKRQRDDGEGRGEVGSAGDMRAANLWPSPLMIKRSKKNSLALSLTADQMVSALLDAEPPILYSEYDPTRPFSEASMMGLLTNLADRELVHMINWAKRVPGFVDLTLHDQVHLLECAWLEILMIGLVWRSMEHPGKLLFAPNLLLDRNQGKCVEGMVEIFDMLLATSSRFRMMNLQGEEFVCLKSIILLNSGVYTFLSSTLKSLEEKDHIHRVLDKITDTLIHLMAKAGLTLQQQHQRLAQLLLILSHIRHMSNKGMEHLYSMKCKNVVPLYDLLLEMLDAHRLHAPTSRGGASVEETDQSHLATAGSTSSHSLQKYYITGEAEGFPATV
quantity.name: pIC50

C[N+]1([O-])CCC2(CC1)C(=O)Nc1cc(/C=C3\c4ccccc4COc4cc(F)ccc43)ccc12 (centres undefined)    < 4.43
O=c1[nH]c2cc(/C=C3\c4ccccc4COc4cc(F)ccc43)ccc2n1[C@@H]1C[C@@H]2COCCN2C1    < 4.60
O=C(O)CCN1CCC2(CC1)C(=O)Nc1cc(/C=C3\c4ccccc4COc4cc(F)ccc43)ccc12    < 4.92
CN(C)CC(=O)N1CCC2(CC1)C(=O)Nc1cc(/C=C3\c4ccccc4COc4cc(F)ccc43)ccc12    < 4.40

* * *

Molecular target: Progesterone receptor (Homo sapiens)
Sequence (P06401 whole entry): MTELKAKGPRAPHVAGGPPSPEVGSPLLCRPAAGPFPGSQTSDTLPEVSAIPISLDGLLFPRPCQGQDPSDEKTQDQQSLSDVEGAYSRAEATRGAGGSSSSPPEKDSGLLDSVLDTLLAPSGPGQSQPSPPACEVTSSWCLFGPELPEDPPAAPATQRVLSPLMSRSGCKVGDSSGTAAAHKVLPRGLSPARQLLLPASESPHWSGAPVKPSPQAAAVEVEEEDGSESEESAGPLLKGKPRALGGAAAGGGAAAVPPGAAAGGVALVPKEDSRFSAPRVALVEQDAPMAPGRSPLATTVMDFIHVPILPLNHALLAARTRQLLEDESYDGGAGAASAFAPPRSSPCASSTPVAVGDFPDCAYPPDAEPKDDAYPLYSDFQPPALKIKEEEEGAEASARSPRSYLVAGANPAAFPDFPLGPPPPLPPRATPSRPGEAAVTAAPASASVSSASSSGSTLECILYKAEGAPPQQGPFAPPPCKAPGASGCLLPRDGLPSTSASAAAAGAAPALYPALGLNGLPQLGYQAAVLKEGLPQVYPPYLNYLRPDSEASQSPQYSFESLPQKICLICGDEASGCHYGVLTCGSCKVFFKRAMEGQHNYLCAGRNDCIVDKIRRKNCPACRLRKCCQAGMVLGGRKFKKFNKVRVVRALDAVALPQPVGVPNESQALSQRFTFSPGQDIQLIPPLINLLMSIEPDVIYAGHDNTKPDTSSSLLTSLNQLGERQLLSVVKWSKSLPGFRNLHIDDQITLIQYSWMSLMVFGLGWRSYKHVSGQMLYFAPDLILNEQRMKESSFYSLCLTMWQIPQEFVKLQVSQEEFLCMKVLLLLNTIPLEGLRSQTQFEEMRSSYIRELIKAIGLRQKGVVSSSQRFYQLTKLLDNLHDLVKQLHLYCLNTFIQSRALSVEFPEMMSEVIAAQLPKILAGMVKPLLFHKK
pIC50: −log10 of the molar value.
quantity.name: pIC50

O=c1[nH]c2cc(/C=C3\c4ccccc4COc4cc(F)ccc43)ccc2n1[C@@H]1C[C@@H]2COCCN2C1    < 4.60
O=C(O)CCN1CCC2(CC1)C(=O)Nc1cc(/C=C3\c4ccccc4COc4cc(F)ccc43)ccc12    < 4.92

* * *

// reported pKi for each item listed
Target: Mineralocorticoid receptor (Homo sapiens, UniProt P08235, C808S)
Sequence (P08235 whole entry C808S): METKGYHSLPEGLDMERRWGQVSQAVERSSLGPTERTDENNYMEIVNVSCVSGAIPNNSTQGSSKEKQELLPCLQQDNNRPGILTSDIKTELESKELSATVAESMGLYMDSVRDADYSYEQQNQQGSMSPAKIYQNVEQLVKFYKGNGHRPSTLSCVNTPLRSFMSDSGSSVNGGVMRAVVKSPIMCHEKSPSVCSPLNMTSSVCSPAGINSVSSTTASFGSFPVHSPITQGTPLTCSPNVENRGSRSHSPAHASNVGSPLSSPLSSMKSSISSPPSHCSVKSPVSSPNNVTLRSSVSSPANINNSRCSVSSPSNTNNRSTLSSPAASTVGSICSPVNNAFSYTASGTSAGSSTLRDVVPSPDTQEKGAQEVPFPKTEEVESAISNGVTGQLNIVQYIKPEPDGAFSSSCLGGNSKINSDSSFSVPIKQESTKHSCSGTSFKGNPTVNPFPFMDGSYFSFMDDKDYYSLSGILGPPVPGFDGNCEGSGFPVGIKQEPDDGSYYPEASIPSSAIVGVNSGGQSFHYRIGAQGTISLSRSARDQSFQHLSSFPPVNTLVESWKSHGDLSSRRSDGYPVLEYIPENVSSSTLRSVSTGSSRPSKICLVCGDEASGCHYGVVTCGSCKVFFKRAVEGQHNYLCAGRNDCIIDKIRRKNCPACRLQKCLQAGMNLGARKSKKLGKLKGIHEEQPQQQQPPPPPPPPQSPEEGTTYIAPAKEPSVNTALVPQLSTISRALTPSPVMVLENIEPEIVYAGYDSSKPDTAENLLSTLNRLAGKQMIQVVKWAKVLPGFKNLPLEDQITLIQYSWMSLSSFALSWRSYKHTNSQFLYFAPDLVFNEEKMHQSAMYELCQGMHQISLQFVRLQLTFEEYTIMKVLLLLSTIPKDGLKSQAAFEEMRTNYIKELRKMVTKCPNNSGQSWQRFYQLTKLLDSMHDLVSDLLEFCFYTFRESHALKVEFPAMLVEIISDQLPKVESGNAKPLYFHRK
pKi: −log10 of the molar value.
quantity.name: pKi

O=C1COc2ccc(CCc3ccc(F)cc3F)cc2N1    7.70
O=C1COc2ccc(CN3c4ccccc4COc4cc(F)ccc43)cc2N1    7.51
O=C1COc2ccc(C#Cc3ccc(F)cc3F)cc2N1    6.84
O=C1COc2ccc(/C=C(\c3ccccc3)c3ccc(F)cc3F)cc2N1    7.26
O=c1[nH]c2cc(/C=C3\c4ccccc4COc4cc(F)ccc43)ccc2n1[C@@H]1C[C@@H]2COCCN2C1    8.05
O=C1COc2ccc(/C=C/c3ccc(F)cc3F)cc2N1    6.79
O=C1COc2ccc(/C=C\c3ccc(F)cc3F)cc2N1    6.59
O=C1COc2ccc(COc3ccc(F)cc3F)cc2N1    6.01
O=C1COc2ccc(N(Cc3cccnc3)c3ccc(F)cc3)cc2N1    5.84
C[N+]1([O-])CCC2(CC1)C(=O)Nc1cc(/C=C3\c4ccccc4COc4cc(F)ccc43)ccc12 (stereo not drawn)    7.72
O=C1CCc2c(/C=C3\c4ccccc4COc4cc(F)ccc43)cccc21    7.89
O=C1COc2ccc(S(=O)(=O)N3c4ccccc4COc4cc(F)ccc43)cc2N1    6.89

* * *

// reported inhibition for each item listed
Target: Alpha-2A adrenergic receptor (Homo sapiens)
Assay: Inhibition of adrenergic alpha2A receptor (unknown origin) at 10 uM
quantity.name: inhibition

O=C1COc2ccc(CN3c4ccccc4COc4cc(F)ccc43)cc2N1    72%
O=C(O)CCN1CCC2(CC1)C(=O)Nc1cc(/C=C3\c4ccccc4COc4cc(F)ccc43)ccc12    75%
CN1CCC2(CC1)C(=O)Nc1cc(/C=C3\c4ccccc4COc4cc(F)ccc43)ccc12    100%

* * *

Biological target: Mineralocorticoid receptor (Homo sapiens, UniProt P08235, C808S)
pIC50: −log10 of the molar value.
Mark Not fulfilled for pIC50 values under 7, and Fulfilled for everything at or above.

O=C1Nc2cc(S(=O)(=O)N3c4ccccc4COc4cc(F)ccc43)ccc2C12CCNCC2    Not fulfilled
O=c1[nH]c2cc(/C=C3\c4ccccc4COc4cc(F)ccc43)ccc2n1[C@@H]1C[C@@H]2COCCN2C1    Fulfilled
O=C1COc2ccc(COc3ccc(F)cc3F)cc2N1    Not fulfilled
O=C1COc2ccc(/C=C\c3ccc(F)cc3F)cc2N1    Not fulfilled
O=C1COc2ccc(/C=C3\c4ccccc4COc4cc(F)ccc43)cc2N1    Fulfilled
O=C1COc2ccc(/C=C(\c3ccccc3)c3ccc(F)cc3F)cc2N1    Not fulfilled
O=C1COc2ccc(CN3c4ccccc4COc4cc(F)ccc43)cc2N1    Not fulfilled
O=C1Nc2cc(CN3c4ccccc4COc4cc(F)ccc43)ccc2C12CCNCC2    Not fulfilled
O=C1COc2ccc(/C=C/c3ccc(F)cc3F)cc2N1    Not fulfilled
O=S1(=O)Cc2ccc(/C=C3\c4ccccc4COc4cc(F)ccc43)cc2N1    Not fulfilled
C[N+]1([O-])CCC2(CC1)C(=O)Nc1cc(/C=C3\c4ccccc4COc4cc(F)ccc43)ccc12 (stereo not drawn)    Fulfilled
CC1(C)OC(=S)Nc2ccc(S(=O)(=O)N3c4ccccc4COc4cc(F)ccc43)cc21    Fulfilled

* * *

// reported half-life for each item listed
Assay: Half life of compound in rat liver microsomes
Format: ADME
quantity.name: half-life

CC1(C)OC(=S)Nc2ccc(S(=O)(=O)N3c4ccccc4COc4cc(F)ccc43)cc21    > 1 h
O=C(O)CCN1CCC2(CC1)C(=O)Nc1cc(/C=C3\c4ccccc4COc4cc(F)ccc43)ccc12    > 1 h
C[N+]1([O-])CCC2(CC1)C(=O)Nc1cc(/C=C3\c4ccccc4COc4cc(F)ccc43)ccc12 (stereo not drawn)    > 1 h
